assay: clinical; details: human, in vivo, 240 mg, AUC (AUC∞)
value kind: AUC(0-inf) (µg·h/mL)
One number for each entry, in µg·h/mL.

## Task # return recorded AUC(0-inf) for input `Cc1nc(-c2ccc(OCC(C)C)c(C#N)c2)sc1C(=O)O`
## Result 28.3

---

assay: clinical; settings: human, in vivo, 240 mg, AUC (AUC24)
value kind: AUC (ng·h/mL)
One number for each entry, in ng·h/mL.

## Task # return recorded AUC for input Cc1nc(-c2ccc(OCC(C)C)c(C#N)c2)sc1C(=O)O [Febuxostat]
## Result 35000

---

test: clinical; conditions: human, in vivo, 20 mg, tmax
value kind: Tmax
The answer should read as a number with its unit following.

## Task # return recorded Tmax for input `Cc1nc(-c2ccc(OCC(C)C)c(C#N)c2)sc1C(=O)O`
## Result 1.06 h

---

assay: clinical; details: human, in vivo, 120 mg, AUC (AUC24)
value kind: AUC (ng·h/mL)
Answers are plain numbers, in ng·h/mL.

## Task # return recorded AUC for input `Cc1nc(-c2ccc(OCC(C)C)c(C#N)c2)sc1C(=O)O`
## Result 12000

---

assay: clinical; details: human, in vivo, 70 mg, AUC (AUC∞)
value kind: AUC(0-inf)
The answer should read as a number with its unit following.

## Task # return recorded AUC(0-inf) for input Cc1nc(-c2ccc(OCC(C)C)c(C#N)c2)sc1C(=O)O [Febuxostat]
## Result 6930 ng·h/mL

---

experiment: clinical; settings: human, in vivo, po, tmax
value kind: Tmax

## Task # return recorded Tmax for input Cc1nc(-c2ccc(OCC(C)C)c(C#N)c2)sc1C(=O)O [Febuxostat]
## Result ~1 h

---

Assay: clinical
Settings: human, in vivo, 180 mg, tmax
Protocol: The development of the previously described embodiments resulted from a long drug development process. […] The study was also designed to assess the pharmacokinetic and pharmacodynamic profiles of multiple daily oral doses over a range of doses and ranges, including both once-daily and twice-daily administration. Samples were analyzed by high performance liquid chromatography.
value kind: Tmax (h)
Answers are plain numbers, in h.

## Task # return recorded Tmax for input `Cc1nc(-c2ccc(OCC(C)C)c(C#N)c2)sc1C(=O)O`
## Result 1.07

---

Assay: clinical
Conditions: human, in vivo, 40 mg, Vss/F
Description: The development of the previously described embodiments resulted from a long drug development process. […] The study was also designed to assess the pharmacokinetic and pharmacodynamic profiles of multiple daily oral doses over a range of doses and ranges, including both once-daily and twice-daily administration. Samples were analyzed by high performance liquid chromatography.
value kind: Vd/F
The answer should read as a number with its unit following.

## Task # return recorded Vd/F for input `Cc1nc(-c2ccc(OCC(C)C)c(C#N)c2)sc1C(=O)O`
## Result 48.7 L

---

assay: clinical; settings: human, in vivo, 160 mg, Cmax
value kind: Cmax (ng/mL)
Numbers only, in ng/mL.

## Task # return recorded Cmax for input `Cc1nc(-c2ccc(OCC(C)C)c(C#N)c2)sc1C(=O)O`
## Result 7300

---

assay: clinical; settings: human, in vivo, 40 mg, AUC (AUC∞)
value kind: AUC(0-inf) (ng·h/mL)
Numbers only, in ng·h/mL.

## Task # return recorded AUC(0-inf) for input Cc1nc(-c2ccc(OCC(C)C)c(C#N)c2)sc1C(=O)O [Febuxostat]
## Result 3980

---

experiment: clinical; settings: human, plasma, po, 120 mg
value kind: Cmax

## Task # return recorded Cmax for input `Cc1nc(-c2ccc(OCC(C)C)c(C#N)c2)sc1C(=O)O`
## Result ~3900 ng/mL

---

experiment: clinical; settings: human, in vivo, 90 mg, AUC (AUC24)
value kind: AUC (µg·h/mL)
Give bare numbers, in µg·h/mL.

## Task # return recorded AUC for input `Cc1nc(-c2ccc(OCC(C)C)c(C#N)c2)sc1C(=O)O`
## Result 9.65

---

experiment: clinical; conditions: human, in vivo, 30 mg, AUC (AUC12)
value kind: AUC (ng·h/mL)
One number for each entry, in ng·h/mL.

## Task # return recorded AUC for input `Cc1nc(-c2ccc(OCC(C)C)c(C#N)c2)sc1C(=O)O`
## Result 2910

---

assay: clinical; conditions: human, in vivo, 90 mg, AUC (AUC∞)
value kind: AUC(0-inf)
The answer should read as a number with its unit following.

## Task # return recorded AUC(0-inf) for input `Cc1nc(-c2ccc(OCC(C)C)c(C#N)c2)sc1C(=O)O`
## Result 9090 ng·h/mL

---

test: clinical; conditions: human, in vivo, 30 mg, AUC (AUC24)
value kind: AUC (ng·h/mL)
One number for each entry, in ng·h/mL.

## Task # return recorded AUC for input `Cc1nc(-c2ccc(OCC(C)C)c(C#N)c2)sc1C(=O)O`
## Result 2570

---

experiment: clinical; settings: human, in vivo, 30 mg, Cmax
value kind: Cmax

## Task # return recorded Cmax for input `Cc1nc(-c2ccc(OCC(C)C)c(C#N)c2)sc1C(=O)O`
## Result 1120 ng/mL

---

experiment: clinical; conditions: human, in vivo, 50 mg, tmax
value kind: Tmax (min)
Numbers only, in min.

## Task # return recorded Tmax for input `Cc1nc(-c2ccc(OCC(C)C)c(C#N)c2)sc1C(=O)O`
## Result 46.8

---

assay: clinical; settings: human, in vivo, 180 mg, AUC (AUC∞)
value kind: AUC(0-inf) (ng·h/mL)
Numbers only, in ng·h/mL.

## Task # return recorded AUC(0-inf) for input `Cc1nc(-c2ccc(OCC(C)C)c(C#N)c2)sc1C(=O)O`
## Result 25600

---

assay: clinical; conditions: human, in vivo, 10 mg, Cmax
value kind: Cmax (ng/mL)
Give bare numbers, in ng/mL.

## Task # return recorded Cmax for input `Cc1nc(-c2ccc(OCC(C)C)c(C#N)c2)sc1C(=O)O`
## Result 336

---

test: clinical; conditions: human, in vivo, 120 mg, tmax
value kind: Tmax (h)
Give bare numbers, in h.

## Task # return recorded Tmax for input Cc1nc(-c2ccc(OCC(C)C)c(C#N)c2)sc1C(=O)O [Febuxostat]
## Result 1

---

assay: clinical; details: human, in vivo, 120 mg, AUC (AUC∞)
value kind: AUC(0-inf) (µg·h/mL)
Give bare numbers, in µg·h/mL.

## Task # return recorded AUC(0-inf) for input Cc1nc(-c2ccc(OCC(C)C)c(C#N)c2)sc1C(=O)O [Febuxostat]
## Result 11.3

---

experiment: clinical; details: human, in vivo, 20 mg, Vss/F
value kind: Vd/F (L)
Answers are plain numbers, in L.

## Task # return recorded Vd/F for input Cc1nc(-c2ccc(OCC(C)C)c(C#N)c2)sc1C(=O)O [Febuxostat]
## Result 29.2

---

Experiment: clinical
Settings: human, in vivo, 180 mg, Cmax
Experimental: The development of the previously described embodiments resulted from a long drug development process. […] The study was also designed to assess the pharmacokinetic and pharmacodynamic profiles of multiple daily oral doses over a range of doses and ranges, including both once-daily and twice-daily administration. Samples were analyzed by high performance liquid chromatography.
value kind: Cmax (ng/mL)
Answers are plain numbers, in ng/mL.

## Task # return recorded Cmax for input `Cc1nc(-c2ccc(OCC(C)C)c(C#N)c2)sc1C(=O)O`
## Result 8400

---

assay: clinical; conditions: human, in vivo, 50 mg, AUC (AUC24)
value kind: AUC (ng·h/mL)
One number for each entry, in ng·h/mL.

## Task # return recorded AUC for input `Cc1nc(-c2ccc(OCC(C)C)c(C#N)c2)sc1C(=O)O`
## Result 4380

---

test: clinical; settings: human, in vivo, 40 mg, Cmax
value kind: Cmax (ng/mL)
Give bare numbers, in ng/mL.

## Task # return recorded Cmax for input `Cc1nc(-c2ccc(OCC(C)C)c(C#N)c2)sc1C(=O)O`
## Result 1530
